Cited source for all entries: patent US20140348747A1

# TESTED_TARGET: T1, A51T
# T1 chain: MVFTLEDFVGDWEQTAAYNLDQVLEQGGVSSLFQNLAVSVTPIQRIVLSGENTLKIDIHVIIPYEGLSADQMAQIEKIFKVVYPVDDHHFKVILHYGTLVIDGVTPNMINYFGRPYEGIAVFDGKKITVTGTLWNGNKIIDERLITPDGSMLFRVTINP
# EXPERIMENTAL_CONTEXT: modification not given

- BINDER: "NVSGWRLFKKISN [NLpep78]"
  Kd (nM): 18.8
